- Tested on: LOX IMVI melanoma
- Test name: NCI tumour cell line growth inhibition, 48 h
Reported property: GI50

{"Molecule": "Cc1ccc(-c2cn3ccnc3c(-c3ccc(Cl)cc3)n2)cc1", "Reported result": "0.384 µM"}
{"Molecule": "COc1ccc(/C=C2\\CCCC3=C2N=C2SC(C)=NN2C3c2ccc(OC)c(OC)c2)cc1OC (stereo not given)", "Reported result": "4.52 µM"}
{"Molecule": "CC1SC(c2ccccc2)N(CCc2cccs2)C1=O (stereo not given)", "Reported result": "2.9 µM"}
{"Molecule": "COC(C(=O)[O][Ge]([CH3])([CH3])[CH3])c1ccccc1 (stereo not given)", "Reported result": "> 100 µM"}
{"Molecule": "COc1ccc(-c2nn3c(-c4cc(F)c(Cl)cc4Cl)nnc3s2)cc1", "Reported result": "26.4 µM"}
{"Molecule": "COc1ccc(-c2c3c(N)nc(-c4ccncc4)nc3nc3c2c(C)nn3-c2ccccc2)cc1", "Reported result": "10.1 µM"}
{"Molecule": "O=C(NCCO)Nc1ccc(-c2nc(N3CCOCC3)c3cccn3n2)cc1", "Reported result": "0.693 µM"}
{"Molecule": "C1C[OH+]CC[OH+]CCNCC[OH+]CC[OH+]CCN1.N.[Cl-].[Pt+4]", "Reported result": "7.66 µM"}
{"Molecule": "CC(CCC(=O)O)[C@H]1CCC2[C@@H]3CC[C@@H]4CC(O)CC[C@]4(C)C3CC[C@@]21C (stereo not given in full)", "Reported result": "29.5 µM"}
{"Molecule": "CC(C)c1cc(-c2n[nH]c(=O)n2-c2ccc3c(ccn3C)c2)c(O)cc1O", "Reported result": "0.0238 µM"}

----------
- Test system: HCT-15 colon
- Test name: NCI tumour cell line growth inhibition, 48 h

{"Compound": "Cc1cc(N(CCCl)CCCl)ccc1C=Nc1ccc(-c2csc(Cc3ccccc3)n2)cc1", "Test system": "HCT-15 colon", "TGI": "> 79.9 µM"}
{"Compound": "Cc1nc(N)nc(N)c1-c1ccc(Cl)c(Cl)c1", "Test system": "HCT-15 colon", "TGI": "> 100 µM"}
{"Compound": "Cc1cc(N(CCC#N)CCC#N)ccc1N=Nc1cccc(C(=O)O)c1", "Test system": "HCT-15 colon", "TGI": "> 100 µM"}
{"Compound": "NC(=O)N=C(N(Cc1ccccc1)Cc1ccccc1)N(Cc1ccccc1)Cc1ccccc1", "Test system": "HCT-15 colon", "TGI": "> 100 µM"}
{"Compound": "NC(=O)NNc1nc2ccccc2c(=O)n1NC(=O)C(=O)Nc1ccc(Cl)cc1Cl", "Test system": "HCT-15 colon", "TGI": "> 100 µM"}
{"Compound": "CN(C)C(=O)OC(Cn1cncn1)c1ccc(Cl)cc1Cl (stereo not given)", "Test system": "HCT-15 colon", "TGI": "> 100 µM"}
{"Compound": "O=S(=O)(O)c1ccc(O)c2ncc(Cl)cc12", "Test system": "HCT-15 colon", "TGI": "> 100 µM"}
{"Compound": "NCCn1c(=O)[nH]c(=O)[nH]c1=S", "Test system": "HCT-15 colon", "TGI": "> 100 µM"}
{"Compound": "C[C@H](OCc1ccccc1)C(=O)N1CCS(=O)(=O)N2CCC[C@H]2C1=O", "Test system": "HCT-15 colon", "TGI": "> 100 µM"}
{"Compound": "O=CC(=C(I)I)c1ccccc1", "Test system": "HCT-15 colon", "TGI": "5.01 µM"}
{"Compound": "O=C(/C=C/c1ccccc1)/C=N/N1C(=S)N(c2ccccc2)C(=Nc2ccccc2)C1=Nc1ccccc1", "Test system": "HCT-15 colon", "TGI": "> 100 µM"}
{"Compound": "Cn1cccc1-c1cc(-c2cccs2)nc(N)c1C#N", "Test system": "HCT-15 colon", "TGI": "> 100 µM"}
{"Compound": "COc1cc(C2C(C(=O)O)=C(CO)Oc3cc4c(cc32)OCO4)cc(OC)c1O (stereo not given)", "Test system": "HCT-15 colon", "TGI": "> 100 µM"}
{"Compound": "O=[N+]([O-])C1C2C=CC(C2)[C@H]1c1ccco1 (stereo not given in full)", "Test system": "HCT-15 colon", "TGI": "> 100 µM"}
{"Compound": "NC(=O)c1cc2cc(Cl)cc(Cl)c2oc1=Nc1ccc(F)cc1", "Test system": "HCT-15 colon", "TGI": "42.3 µM"}
{"Compound": "CCOC(=O)C1(C(=O)OCC)Nc2cccnc2N(C)N1", "Test system": "HCT-15 colon", "TGI": "36.2 µM"}
{"Compound": "CCS(=O)(=O)Nc1ccc(Nc2c3ccccc3nc3ccccc23)c(OC)c1", "Test system": "HCT-15 colon", "TGI": "5.11 µM"}
{"Compound": "CCNCCNc1c2ccccc2nc2ccccc12", "Test system": "HCT-15 colon", "TGI": "5.83 µM"}
{"Compound": "CCCc1[nH]c(SCCCCCCCCSc2nc(-c3ccc(F)cc3)c(CCC)[nH]2)nc1-c1ccc(F)cc1", "Test system": "HCT-15 colon", "TGI": "> 100 µM"}
{"Compound": "O=C1c2cccnc2C(=O)c2nc3cc(N4CCN(C5CC5)CC4)ccc3nc21", "Test system": "HCT-15 colon", "TGI": "1.28 µM"}

----------
- Test system: HL-60(TB) leukemia
- Test name: NCI tumour cell line growth inhibition, 48 h

{"Compound": "Nc1ccn(CCNCCn2cnc3nc(N)[nH]c(=O)c32)c(=O)n1", "TGI": "> 100 µM"}
{"Compound": "COc1ccc(-c2ccc(/C=N/n3c(COc4ccc(Cl)cc4Cl)nn(CN4CCOCC4)c3=S)o2)c([N+](=O)[O-])c1", "TGI": "41.1 µM"}
{"Compound": "CCOC(=O)c1c(N)sc2c1C(C(=O)OCC)CC2 (stereo not drawn)", "TGI": "> 100 µM"}
{"Compound": "Cc1cc(N(CCCl)CCCl)ccc1C=Nc1ccc(-c2csc(Cc3ccccc3)n2)cc1", "TGI": "> 46 µM"}
{"Compound": "COc1cccc(-c2c(C#N)c(N)nc3c2CCS(=O)(=O)c2ccc(C)cc2-3)c1", "TGI": "> 100 µM"}
{"Compound": "CC1OC(O[C@@H]2OC=C(C=O)[C@@]3(O)CC[C@H](C)[C@@H]23)C(O)C(O)C1O (stereo partly drawn)", "TGI": "> 100 µM"}
{"Compound": "CCSCCC(N)C(=O)O (stereo not drawn)", "TGI": "> 100 µM"}
{"Compound": "COc1cccc2c1c(C(=O)C(=O)Nc1cc(C)no1)cn2Cc1ccc(F)cc1", "TGI": "> 20.2 µM"}
{"Compound": "N=c1c2c(C(N)=O)cn(C3OC(CO)C(O)C3O)c2ncn1O (stereo not drawn)", "TGI": "0.659 µM"}
{"Compound": "O=C1C=C2C(=NC34CCCCC3C(c3ccccc3)C3=C(c5ccccc5CC3)N24)c2ccccc21 (stereo not drawn)", "TGI": "> 10 µM"}
{"Compound": "O=S(=O)(O)c1ccc2cccc(N=Nc3c(O)ccc4ccccc34)c2c1", "TGI": "> 100 µM"}
{"Compound": "O=C(CCCN1CCC2(CC1)OC(=O)N(c1ccccc1)C2=O)c1ccccc1", "TGI": "> 100 µM"}
{"Compound": "O=C1C(Br)=CC2(C=C1Br)CCNC1=C2C(=O)c2ccccc2C1=O", "TGI": "13.3 µM"}

----------
- System: HCT-15 colon
- Test name: NCI tumour cell line growth inhibition, 48 h
Listed here are compounds together with their documented TGI.
Reported property: TGI

{"Compound": "CCC1C(C#N)=C(N)OC2=C1C(=O)CC(C)(C)C2 (configuration not stated)", "Reported property": "TGI", "Reported result": "> 100 µM"}
{"Compound": "CCOC(CN=C=S)OCC", "Reported property": "TGI", "Reported result": "> 10 µM"}
{"Compound": "CCOC(=O)N(Cc1cccs1)c1cc(OC)c(OC)c(OC)c1", "Reported property": "TGI", "Reported result": "> 100 µM"}
{"Compound": "CNC(=O)OC(C)CN1c2ccccc2Sc2ccc(Cl)cc21 (configuration not stated)", "Reported property": "TGI", "Reported result": "> 10 µM"}
{"Compound": "COC(=O)C1=CC2CCCC1(O)C(C(C)=O)C2 (configuration not stated)", "Reported property": "TGI", "Reported result": "> 100 µM"}
{"Compound": "NCCOCCOCCNc1nc(Cc2ccccc2)nc(NCCCN2CCCC2=O)n1", "Reported property": "TGI", "Reported result": "> 100 µM"}
{"Compound": "CC(=O)NC(CS/N=N/c1nc[nH]c1C(N)=O)C(=O)O (configuration not stated)", "Reported property": "TGI", "Reported result": "> 100 µM"}
{"Compound": "COc1cc(/C=C/C(=O)c2ccc(NS(=O)(=O)c3cc([N+](=O)[O-])ccc3C)cc2)cc(OC)c1OC", "Reported property": "TGI", "Reported result": "13.4 µM"}
{"Compound": "O=[N+]([O-])C(C(Cl)=C(Cl)Cl)=C(N(Cc1ccccc1)Cc1ccccc1)N(Cc1ccccc1)Cc1ccccc1", "Reported property": "TGI", "Reported result": "> 100 µM"}
{"Compound": "Nc1ccccc1C#C/C=C\\C#Cc1cccs1", "Reported property": "TGI", "Reported result": "43.7 µM"}
{"Compound": "CCN(CC)c1ccc(C(=O)c2ccccc2C(=O)O)c(O)c1", "Reported property": "TGI", "Reported result": "> 100 µM"}
{"Compound": "CN(CC1(CO)CCC1)c1cc(Cl)nc(N)n1", "Reported property": "TGI", "Reported result": "> 100 µM"}
{"Compound": "O=c1cc(NNc2ccccc2)[nH]c(=S)[nH]1", "Reported property": "TGI", "Reported result": "42.1 µM"}
{"Compound": "CC1(C)CC(=O)c2c(C(F)(F)F)nn(-c3ccc(C(N)=O)c(NC4CCC(OC(=O)CN)CC4)c3)c2C1 (configuration not stated)", "Reported property": "TGI", "Reported result": "> 93.6 µM"}
{"Compound": "Nc1ccn(CCNCCn2cnc3nc(N)[nH]c(=O)c32)c(=O)n1", "Reported property": "TGI", "Reported result": "> 100 µM"}
{"Compound": "O=C1c2c(ccc3c2CCCC3)CC12Cc1ccc3c(c1C2=O)CCCC3", "Reported property": "TGI", "Reported result": "> 100 µM"}
{"Compound": "CCOC(=O)c1c2c(n3ccccc13)C(=O)c1ccccc1C2=O", "Reported property": "TGI", "Reported result": "> 100 µM"}
{"Compound": "COc1ccc2c(C)cc(N/N=C(\\C)C=O)nc2c1", "Reported property": "TGI", "Reported result": "15.2 µM"}
{"Compound": "CC1C=C(OC(=O)c2ccccc2)C(=O)C(n2cc(F)c(=O)[nH]c2=O)O1 (configuration not stated)", "Reported property": "TGI", "Reported result": "> 100 µM"}
{"Compound": "COc1cc(OC(C)=O)cc2c(OC(C)=O)ccc(OC(C)=O)c12", "Reported property": "TGI", "Reported result": "> 100 µM"}
{"Compound": "CC[C@H]1C=CCC[C@@]2(C[C@@H]3CC[C@@H]4[C@H](C(=O)OCCCCCCCCCCCCCCCC(=O)O)[C@]5(CCC[C@@H](C)O5)NC(=[N+]34)N2)O1", "Reported property": "TGI", "Reported result": "7.77 µM"}
{"Compound": "Cn1cnc(CCc2ccccc2)n1", "Reported property": "TGI", "Reported result": "> 100 µM"}
